Where these numbers come from: patent US11952384B2

measurement.target: BCRP (Homo sapiens, UniProt Q9UNQ0)
Sequence (Q9UNQ0 whole entry): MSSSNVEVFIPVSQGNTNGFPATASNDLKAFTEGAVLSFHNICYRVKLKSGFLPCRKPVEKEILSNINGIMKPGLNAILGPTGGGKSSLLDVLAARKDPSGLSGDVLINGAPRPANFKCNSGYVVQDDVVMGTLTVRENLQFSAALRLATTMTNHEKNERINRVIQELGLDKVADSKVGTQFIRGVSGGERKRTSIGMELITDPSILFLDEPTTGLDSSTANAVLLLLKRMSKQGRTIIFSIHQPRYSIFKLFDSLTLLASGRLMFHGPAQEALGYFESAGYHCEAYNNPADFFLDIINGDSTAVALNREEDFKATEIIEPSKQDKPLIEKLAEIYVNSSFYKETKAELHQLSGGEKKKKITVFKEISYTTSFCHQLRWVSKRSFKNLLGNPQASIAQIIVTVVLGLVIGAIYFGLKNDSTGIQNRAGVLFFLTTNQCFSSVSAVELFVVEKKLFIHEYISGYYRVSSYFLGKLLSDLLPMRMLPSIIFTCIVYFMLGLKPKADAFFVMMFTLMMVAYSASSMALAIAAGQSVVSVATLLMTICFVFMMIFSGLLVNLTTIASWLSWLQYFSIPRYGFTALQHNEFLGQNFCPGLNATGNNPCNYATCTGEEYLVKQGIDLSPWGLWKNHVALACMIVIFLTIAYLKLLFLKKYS
protocol.text: Study on transporter substrates in Caco-2 cell model
condition.context: human, Caco-2, with KO143 (concentration not stated), Recovery rate (%) AP-BL, Caco-2; KO143 +
endpoint.name: recovery at 2 h (%)
Give just the number in %; leave the unit off.

Solved cases below.
{"compound": "CC[C@@]1(O)C(=O)OCc2c1cc1n(c2=O)Cc2c-1nc1cc(F)c(C)c3c1c2[C@@H](NC(=O)[C@H]1C[C@H](O)C1)CC3", "recovery at 2 h [%]": 65}
{"compound": "CC[C@@]1(O)C(=O)OCc2c1cc1n(c2=O)Cc2c-1nc1cc(F)c(C)c3c1c2[C@@H](NC(=O)C1CCC(O)CC1)CC3 (single isomer, unassigned)", "recovery at 2 h [%]": 76.9}
{"compound": "CC[C@@]1(O)C(=O)OCc2c1cc1n(c2=O)Cc2c-1nc1cc(F)c(C)c3c1c2[C@@H](N1CCC(O)C1=O)CC3 (some centres unmarked)", "recovery at 2 h [%]": 81.5}

Return recovery at 2 h measured with BCRP (Homo sapiens, UniProt Q9UNQ0) given this compound: CC(C)c1nc(N(C)S(C)(=O)=O)nc(-c2ccc(F)cc2)c1/C=C/[C@@H](O)C[C@@H](O)CC(=O)O [Rosuvastatin, rosuvastatin, reference compound]
95.8

Return recovery at 2 h measured with BCRP (Homo sapiens, UniProt Q9UNQ0) given this compound: `CC[C@@]1(O)C(=O)OCc2c1cc1n(c2=O)Cc2c-1nc1cc(F)c(C)c3c1c2[C@@H](NC(=O)[C@H]1C[C@@H](O)C1)CC3`
76.9
